Target: human TGR5 (Homo sapiens, UniProt Q8TDU6)
Construct: expressed in transfected cells; host or cells: HEK293
Sequence (Q8TDU6 1-330): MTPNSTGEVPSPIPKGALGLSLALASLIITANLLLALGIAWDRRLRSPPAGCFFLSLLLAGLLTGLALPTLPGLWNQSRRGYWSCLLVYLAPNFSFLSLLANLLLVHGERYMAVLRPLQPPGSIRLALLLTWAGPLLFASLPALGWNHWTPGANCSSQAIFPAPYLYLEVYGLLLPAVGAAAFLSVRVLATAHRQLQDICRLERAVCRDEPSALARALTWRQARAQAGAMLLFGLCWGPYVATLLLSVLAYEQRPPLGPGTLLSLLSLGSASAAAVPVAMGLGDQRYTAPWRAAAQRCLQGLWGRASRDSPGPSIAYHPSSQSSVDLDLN
Test: Cell-based TGR5 assay (cAMP generation, HTRF)
Conditions: HEK293 cells stably transfected with human TGR5; cAMP by HTRF; 30 minutes at 37° C.; read-out: pEC50 Human TGR5 (converted)

compound	EC50
CC(CCCN(CCCS(C)(=O)=O)C(=O)[C@@H](O)[C@@H](O)[C@H](O)[C@@H](O)CO)c1ccc(Cl)c(CNC2(c3cnccc3-c3ccccc3OC3CC3)CC2)c1 (some centres unmarked)	< 100 nM
CCOC(=O)NCCCN(CCCSc1ccc(Cl)c(COC2(c3cnccc3-c3ccccc3OC3CC3)CC2)c1)C(=O)[C@@H](O)[C@@H](O)[C@H](O)[C@@H](O)CO	126 to 1000 nM
O=C(CN1CCN(S(=O)(=O)c2ccc(Cl)c(COC3(c4cnccc4-c4ccccc4OC4CC4)CC3)c2)CC1)NC[C@H](O)[C@@H](O)[C@H](O)[C@H](O)CO	126 to 1000 nM
Cc1ccc(C(C)CCCC(=O)N2CCN(CC(=O)NC[C@H](O)[C@@H](O)[C@H](O)[C@H](O)CO)CC2)cc1CNC1(c2cnccc2-c2ccccc2OC2CC2)CC1 (some centres unmarked)	< 100 nM
CN(C[C@H](O)[C@@H](O)[C@H](O)[C@H](O)CO)C(=O)CCC[S+]([O-])c1ccc(Cl)c(CNC2(c3cnccc3-c3ccccc3OC3CC3)CC2)c1 (some centres unmarked)	126 to 1000 nM

// data source = patent US12084472B2
